# maps each entry to its IC50
- tested target: erbB2 tyrosine kinase (Homo sapiens, UniProt P04626)
- Construct: Recombinant intracellular fragments of EGFR, erbB2 and erbB4; made in house; host or cells: baculovirus/Sf21 insect cells (cleared lysate used)
- Sequence (P04626 676-1255 limits assumed): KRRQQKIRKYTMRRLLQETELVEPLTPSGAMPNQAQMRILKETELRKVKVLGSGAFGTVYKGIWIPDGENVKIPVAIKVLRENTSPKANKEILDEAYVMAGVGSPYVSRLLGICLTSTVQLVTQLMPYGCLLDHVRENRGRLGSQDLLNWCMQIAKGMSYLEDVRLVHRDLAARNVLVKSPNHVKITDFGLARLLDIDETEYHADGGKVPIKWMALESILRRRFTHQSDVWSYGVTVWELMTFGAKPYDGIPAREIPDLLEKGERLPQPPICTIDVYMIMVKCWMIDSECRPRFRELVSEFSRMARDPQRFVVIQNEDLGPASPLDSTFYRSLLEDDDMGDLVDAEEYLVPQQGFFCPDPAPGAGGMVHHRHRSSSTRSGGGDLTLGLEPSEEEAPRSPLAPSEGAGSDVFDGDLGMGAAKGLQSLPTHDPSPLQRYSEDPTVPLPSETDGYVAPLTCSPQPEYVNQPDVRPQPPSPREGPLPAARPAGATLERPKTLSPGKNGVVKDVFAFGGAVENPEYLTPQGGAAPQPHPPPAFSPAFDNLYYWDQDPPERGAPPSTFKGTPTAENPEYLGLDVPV
- protocol description: Protein tyrosine kinase phosphorylation assay, Test (a), erbB2
- Assay type: biochemical
- conditions: recombinant intracellular fragment, ATP at Km; read-out: IC50 Test (a): Inhibition of erbB2 tyrosine kinase protein phosphorylation

Sample answers from the record:
In [3]: df
Out[3]:
                               query_smiles  result
0  COC(=O)N1CCC(Oc2cc3c(Nc4cccc(Cl)c4F)ncnc3cc2OC)CC1   38 nM
1  COc1cc2ncnc(Nc3cccc(Cl)c3F)c2cc1OC1CCN(C(=O)OCCN2CCCCC2)CC1    2 nM
2  COc1cc2ncnc(Nc3cccc(Cl)c3F)c2cc1OC1CCN(C(=O)OCCN2CCCC2)CC1   10 nM

Please turn your attention to the following entry.
Param readout = IC50; param system = erbB2 tyrosine kinase (Homo sapiens, UniProt P04626); param query = `COc1cc2ncnc(Nc3ccc(F)c(Cl)c3F)c2cc1OC1CCN(C(=O)OCCN2CCCC2)CC1` ; response: value 2 nM

---

- tested target: erbB2 (Homo sapiens)
- Construct: to give a cell line that overexpresses full length wild type erbB2 protein
- Sequence (P04626 23-1255): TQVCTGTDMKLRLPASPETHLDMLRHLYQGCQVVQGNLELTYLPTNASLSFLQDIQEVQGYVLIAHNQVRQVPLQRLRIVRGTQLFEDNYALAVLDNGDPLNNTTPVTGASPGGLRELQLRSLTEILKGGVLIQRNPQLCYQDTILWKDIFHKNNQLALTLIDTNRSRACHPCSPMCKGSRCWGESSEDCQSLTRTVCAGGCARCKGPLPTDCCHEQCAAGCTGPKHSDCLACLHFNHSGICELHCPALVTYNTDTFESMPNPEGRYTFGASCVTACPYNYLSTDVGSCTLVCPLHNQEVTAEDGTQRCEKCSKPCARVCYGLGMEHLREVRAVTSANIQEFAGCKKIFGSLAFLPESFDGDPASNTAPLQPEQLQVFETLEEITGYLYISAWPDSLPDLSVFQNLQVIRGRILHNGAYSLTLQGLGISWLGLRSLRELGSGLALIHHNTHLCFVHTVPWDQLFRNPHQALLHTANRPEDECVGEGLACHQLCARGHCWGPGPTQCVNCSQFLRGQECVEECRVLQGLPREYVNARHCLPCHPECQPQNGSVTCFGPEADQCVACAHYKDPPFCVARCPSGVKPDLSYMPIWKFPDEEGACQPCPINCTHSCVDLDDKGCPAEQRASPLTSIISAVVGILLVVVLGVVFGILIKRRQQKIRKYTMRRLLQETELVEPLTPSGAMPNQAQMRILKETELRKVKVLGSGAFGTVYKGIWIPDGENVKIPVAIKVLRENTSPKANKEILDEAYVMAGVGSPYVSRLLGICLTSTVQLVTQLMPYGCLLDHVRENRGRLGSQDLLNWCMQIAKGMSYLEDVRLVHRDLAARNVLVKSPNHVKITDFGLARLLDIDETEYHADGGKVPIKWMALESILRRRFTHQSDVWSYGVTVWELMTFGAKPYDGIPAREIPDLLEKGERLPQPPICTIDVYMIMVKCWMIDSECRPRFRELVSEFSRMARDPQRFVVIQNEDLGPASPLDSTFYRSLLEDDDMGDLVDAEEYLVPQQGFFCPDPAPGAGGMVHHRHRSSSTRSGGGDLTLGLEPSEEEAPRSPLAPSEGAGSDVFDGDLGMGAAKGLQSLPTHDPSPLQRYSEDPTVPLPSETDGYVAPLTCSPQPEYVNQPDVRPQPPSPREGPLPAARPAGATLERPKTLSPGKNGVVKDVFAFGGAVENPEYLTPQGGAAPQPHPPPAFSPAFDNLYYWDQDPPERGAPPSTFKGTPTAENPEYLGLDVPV
- protocol description: Clone 24 phospho-erbB2 cell assay, Test (e)
- conditions: MCF7 derived Clone 24 cells, 4 hrs; read-out: IC50 Test (e): Inhibition of erbB2 tyrosine kinase protein phosphorylation
value kind: pIC50
Value format note: pIC50 is -log10 of concentration (mol/L); just state the number.

Data request, read-out pIC50, for `COc1cc2ncnc(Nc3cccc(Cl)c3F)c2cc1OC1CCN(C(=O)OCCN2CCCC2)CC1` 7.44

Data request, read-out pIC50, for `COc1cc2ncnc(Nc3cccc(Cl)c3F)c2cc1OC1CCN(C(=O)OCCN2CCCCC2)CC1` 7.39

Data request, read-out pIC50, for `COC(=O)N1CCC(Oc2cc3c(Nc4cccc(Cl)c4F)ncnc3cc2OC)CC1` 8.05

Data request, read-out pIC50, for `COc1cc2ncnc(Nc3ccc(F)c(Cl)c3F)c2cc1OC1CCN(C(=O)OCCN2CCCC2)CC1` 7.54

---

- tested target: EGFR tyrosine kinase (Homo sapiens)
- Construct: Recombinant intracellular fragments of EGFR, erbB2 and erbB4
- Sequence (P00533 669-1210 limits assumed): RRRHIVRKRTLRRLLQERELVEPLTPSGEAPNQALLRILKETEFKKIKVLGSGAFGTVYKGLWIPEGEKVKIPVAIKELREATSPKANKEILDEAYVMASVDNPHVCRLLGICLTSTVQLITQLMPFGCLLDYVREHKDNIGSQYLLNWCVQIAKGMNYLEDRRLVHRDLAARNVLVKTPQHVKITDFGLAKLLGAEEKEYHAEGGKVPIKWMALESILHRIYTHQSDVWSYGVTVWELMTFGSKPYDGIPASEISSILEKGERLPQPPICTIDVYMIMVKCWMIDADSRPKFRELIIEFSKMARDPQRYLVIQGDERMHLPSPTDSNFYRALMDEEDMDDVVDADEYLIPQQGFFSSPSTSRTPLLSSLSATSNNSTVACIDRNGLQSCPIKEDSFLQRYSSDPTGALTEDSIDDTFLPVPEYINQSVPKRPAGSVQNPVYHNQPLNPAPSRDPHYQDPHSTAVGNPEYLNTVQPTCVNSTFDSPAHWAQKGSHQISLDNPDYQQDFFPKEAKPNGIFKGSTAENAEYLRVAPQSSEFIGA
- protocol description: Protein tyrosine kinase phosphorylation assay, Test (a), EGFR
- conditions: recombinant intracellular fragment, ATP at Km; read-out: IC50 Test (a): Inhibition of EGFR tyrosine kinase protein phosphorylation
value kind: IC50 (nM)
Kindly answer with a numeric value in nM, unit omitted.

>>> df
                                   compound  result_number
0  COc1cc2ncnc(Nc3ccc(F)c(Cl)c3F)c2cc1OC1CCN(C(=O)OCCN2CCCC2)CC1 [Example 4]              2
1  COC(=O)N1CCC(Oc2cc3c(Nc4cccc(Cl)c4F)ncnc3cc2OC)CC1 [Example 1]              1

Please turn your attention to the following entry.
Data request, read-out IC50, for COc1cc2ncnc(Nc3cccc(Cl)c3F)c2cc1OC1CCN(C(=O)OCCN2CCCC2)CC1 [Example 2] 4
